- TESTED_TARGET: T1, human a-PD-L1 Fc (Sino Biological, 10084-H02H, LC11NO2402) (human, UniProt Q9NZQ7 19-239)
- T1 construct: Bought Fc fusion immobilised on the SPR chip; Printed as 'a-PD-L1 Fc' but used as the antigen (ligand) for the anti-PD-L1 scFvs; also called Human PD-L1; not shown: Fc part
- T1 sequence (Q9NZQ7 19-239 limits assumed): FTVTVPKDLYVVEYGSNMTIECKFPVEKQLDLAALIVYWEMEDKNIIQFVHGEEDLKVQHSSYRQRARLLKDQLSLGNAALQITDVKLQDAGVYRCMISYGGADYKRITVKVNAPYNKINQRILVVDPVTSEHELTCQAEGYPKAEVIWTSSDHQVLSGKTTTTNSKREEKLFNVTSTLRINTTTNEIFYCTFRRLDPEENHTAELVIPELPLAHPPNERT
- PROTOCOL: SPR, PD-L1 Fc immobilised, scFv analyte, 1:1 fit
MEASUREMENT_LABEL: n-fold to wt (fold)
# value in fold; strip the unit string

Below, 2 binders whose answers are already recorded.
PRO3341 (scFv 37-20-B03-sc09.1_(T101S, T146S)) (scFv, PRO2230 variant; VH substitutions, AHo numbering; also called PRO2230 T101S-T146S) scFv: DIQMTQSPASLSASVGDRVTITCQASQSIGTYLAWYQQKPGKPPKLLIYRAFILASGVPSRFSGSGSGTDFTLTISSLQPEDFATYYCQSNFYSDSTTIGPNAFGTGTKVTVLGGGGGSGGGGSGGGGSGGGGSEVQLVESGGGLVQPGGSLRLSCAASGFSFNSDYWIYWVRQAPGKGLEWIASIYGGSSGNTQYASWAQGRFTISRDNSKNTVYLQMNSLRAEDSAVYFCARGYVDYGGATDLWGQGTLVSVSS : 1
PRO2987 (scFv 37-20-B03-sc09.1_(P15A)) (scFv, PRO2230 variant; VH substitution, AHo numbering; also called PRO2230 P15A) scFv: DIQMTQSPASLSASVGDRVTITCQASQSIGTYLAWYQQKPGKPPKLLIYRAFILASGVPSRFSGSGSGTDFTLTISSLQPEDFATYYCQSNFYSDSTTIGPNAFGTGTKVTVLGGGGGSGGGGSGGGGSGGGGSEVQLVESGGGLVQAGGSLRLSCAASGFSFNSDYWIYWVRQAPGKGLEWIASIYGGSSGNTQYASWAQGRFTISRDNSKNTVYLQMNSLRAEDTAVYFCARGYVDYGGATDLWGQGTLVTVSS : 1

Now take the following binder into account.
Would you kindly share the measured n-fold to wt for PRO3311 (scFv 37-20-B03-sc09.1_(L12A, T101Q, L144A, T146Q)) (scFv, PRO2230 variant; VH substitutions, AHo numbering; also called PRO2230 L12A-T101Q-L144A-T146Q) scFv: DIQMTQSPASLSASVGDRVTITCQASQSIGTYLAWYQQKPGKPPKLLIYRAFILASGVPSRFSGSGSGTDFTLTISSLQPEDFATYYCQSNFYSDSTTIGPNAFGTGTKVTVLGGGGGSGGGGSGGGGSGGGGSEVQLVESGGGAVQPGGSLRLSCAASGFSFNSDYWIYWVRQAPGKGLEWIASIYGGSSGNTQYASWAQGRFTISRDNSKNTVYLQMNSLRAEDQAVYFCARGYVDYGGATDLWGQGTAVQVSS ?
1
